Data provenance: patent US20230047413A1

- target.or.test.system: T1, PHF-tau (paired helical filament tau isolated from Alzheimer's disease brain) (human, UniProt P10636-8 2-441, limits assumed, hyper-phosphorylated, aggregated; sites not listed for the preparation)
- T1 construct: also called enriched PHF-tau; ePHF-tau
- T1 sequence (P10636 other isoform, or with tags, fused parts or gaps limits assumed): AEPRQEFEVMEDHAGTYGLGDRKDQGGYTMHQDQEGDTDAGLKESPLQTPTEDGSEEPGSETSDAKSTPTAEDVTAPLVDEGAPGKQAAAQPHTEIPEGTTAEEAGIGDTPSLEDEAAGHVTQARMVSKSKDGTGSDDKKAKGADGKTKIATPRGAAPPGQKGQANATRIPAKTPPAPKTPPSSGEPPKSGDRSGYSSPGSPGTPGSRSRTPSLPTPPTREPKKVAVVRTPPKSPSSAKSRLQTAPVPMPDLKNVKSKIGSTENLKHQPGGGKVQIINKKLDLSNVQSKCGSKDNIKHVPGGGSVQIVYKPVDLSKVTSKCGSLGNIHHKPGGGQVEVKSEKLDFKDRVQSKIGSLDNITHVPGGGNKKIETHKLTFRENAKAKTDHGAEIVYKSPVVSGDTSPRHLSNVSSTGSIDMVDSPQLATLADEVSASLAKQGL
- procedure.summary: SPR ProteOn, PHF-tau capture-coupled via HT7, bivalent model
measure.name: koff (s⁻¹)
Numbers only, in s⁻¹.

binder	readout.unit	koff
B235 (antibody, human IgG1, V domains shown, Humanized (HFA) PT3 variant, human IgG1/kappa; also called VH91/VL77) VH: EVQLLESGGGLVQPGGSLRLSCAASGFTFSSYAMSWVRQAPGKGLEWVSSISKGGNTYYADSVKGRFTISRDNSKNTLYLQMNSLRAEDTAVYYCAKGWGDYGWFAYWGQVTLVTVSS VL: DIQMTQSPSSLSASVGDRVTITCKASQDINRYLNWFQQKPGKAPKSLIYRANRLLDGVPSRFSGSGSGTDFTLTISSLQPEDFATYYCLQYDEFPLTFGQGTKLEIK	s⁻¹	8.06e-05

The value of koff measured for the binder B296 (antibody, human IgG1, kappa, V domains shown, Humanized PT3, human IgG1/kappa; also called VH92/VL77; HFA-PT3) VH: QVQLVESGGGVVQPGRSLRLSCAASGFTFSSYAMSWVRQAPGKGLEWVASISKGGNTYYADSVKGRFTISRDNSKNTLYLQMNSLRAEDTAVYYCARGWGDYGWFAYWGQVTLVTVSS VL: DIQMTQSPSSLSASVGDRVTITCKASQDINRYLNWFQQKPGKAPKSLIYRANRLLDGVPSRFSGSGSGTDFTLTISSLQPEDFATYYCLQYDEFPLTFGQGTKLEIKR turned out to be 2.93e-05
